Reference source for all entries: paper PMC6982996

- TARGET DESC: NDM-1 (Klebsiella pneumoniae, UniProt C7C422)
- Construct: Li's Laboratory, Sichuan University (collaborator, a gift and not a purchase)
- Sequence (C7C422 29-270, looked up, species assumed): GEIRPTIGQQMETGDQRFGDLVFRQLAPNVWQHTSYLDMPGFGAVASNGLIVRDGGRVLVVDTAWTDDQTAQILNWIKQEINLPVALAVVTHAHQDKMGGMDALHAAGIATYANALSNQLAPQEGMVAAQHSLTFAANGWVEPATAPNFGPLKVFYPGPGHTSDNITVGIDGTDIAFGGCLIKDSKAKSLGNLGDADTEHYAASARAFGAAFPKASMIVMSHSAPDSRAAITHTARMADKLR
- PROTOCOL: NDM-1 inhibition assay (FC5 fluorogenic substrate)
- Assay type: biochemical
- CONDITION NOTES: @ 100 μM; mean ± SD (n = 3)
PARAMETER MEASURED: inhibition at 100 µM (%)

Recorded inhibition at 100 µM, per entry:
[
  {
    "COMPOUND": "Brc1ccc(-c2nnc3n2CCCS3)cc1",
    "inhibition at 100 µM / %": 8
  },
  {
    "COMPOUND": "COc1ccccc1-c1nnc2n1CCCS2",
    "inhibition at 100 µM / %": 15
  },
  {
    "COMPOUND": "c1ccc(-c2nnc3n2CCCS3)nc1",
    "inhibition at 100 µM / %": 11
  },
  {
    "COMPOUND": "CC(C)(C)c1ccc(-c2nnc3n2CCCS3)cc1",
    "inhibition at 100 µM / %": 11
  },
  {
    "COMPOUND": "CC(=O)Nc1ccc(Nc2ccc(-c3nnc4n3CCCS4)cc2)cc1",
    "inhibition at 100 µM / %": 23
  },
  {
    "COMPOUND": "Clc1ccc(-c2nnc3n2CCCS3)cc1",
    "inhibition at 100 µM / %": 14
  }
]

P = Cc1c(-c2nnc3n2CCCS3)cccc1[N+](=O)[O-]
Q = Fc1ccc(-c2nnc3n2CCCS3)cc1
Q: Hi there! Just curious which has the higher inhibition at 100 µM between P and Q . Answer by quoting the chosen item's label.
A: Q

A = O=C(O)c1ccccc1-c1nnc2n1CCCS2
B = c1coc(-c2nnc3n2CCCS3)c1 [10a]
Q: Given the two records A and B , choose the one whose inhibition at 100 µM value is lower. Answer by quoting the chosen item's label.
A: A
(A: 7%, B: 15%)

* * *

- Test system: VIM-5
- PROTOCOL: VIM-5 inhibition assay (FC5 fluorogenic substrate)
- Format: biochemical
- CONDITION NOTES: @ 100 μM; mean ± SD (n = 3)
PARAMETER MEASURED: Inhibition % VIM-5

Recorded Inhibition % VIM-5, per entry:
[
  {
    "SMILES DATA": "Ic1cccc(-c2nnc3n2CCCS3)c1",
    "TARGET DESC": "VIM-5",
    "Inhibition % VIM-5": "−5 ± 2/– %"
  },
  {
    "SMILES DATA": "O=C(O)c1ccccc1-c1nnc2n1CCCS2",
    "TARGET DESC": "VIM-5",
    "Inhibition % VIM-5": "11 ± 1/– %"
  },
  {
    "SMILES DATA": "Clc1ccc(-c2nnc3n2CCCS3)cc1",
    "TARGET DESC": "VIM-5",
    "Inhibition % VIM-5": "12 ± 1/– %"
  },
  {
    "SMILES DATA": "Fc1cccc(-c2nnc3n2CCCS3)c1",
    "TARGET DESC": "VIM-5",
    "Inhibition % VIM-5": "6 ± 1/– %"
  },
  {
    "SMILES DATA": "COc1ccccc1-c1nnc2n1CCCS2",
    "TARGET DESC": "VIM-5",
    "Inhibition % VIM-5": "7 ± 1/– %"
  },
  {
    "SMILES DATA": "Brc1ccccc1-c1nnc2n1CCCS2",
    "TARGET DESC": "VIM-5",
    "Inhibition % VIM-5": "13 ± 2/– %"
  },
  {
    "SMILES DATA": "Oc1ccccc1-c1nnc2n1CCCS2",
    "TARGET DESC": "VIM-5",
    "Inhibition % VIM-5": "10 ± 2/– %"
  },
  {
    "SMILES DATA": "Fc1ccc(-c2nnc3n2CCCS3)cc1",
    "TARGET DESC": "VIM-5",
    "Inhibition % VIM-5": "14 ± 1/– %"
  }
]

Lab note: measured Inhibition % VIM-5 of Cc1c(-c2nnc3n2CCCS3)cccc1[N+](=O)[O-] was 15 ± 1/– %

Lab note: measured Inhibition % VIM-5 of O=C(O)c1ccccc1-c1nnc2n1C(=O)CS2 was 10 ± 2/– %

Lab note: measured Inhibition % VIM-5 of Cc1ccccc1-c1nnc2n1CCCS2 was 12 ± 2/– %

Lab note: measured Inhibition % VIM-5 of c1ccc(Cc2nnc3n2CCCS3)cc1 was 8 ± 1/– %

* * *

- TARGET DESC: IMP-1 (Serratia marcescens, UniProt P52699)
- Construct: Li's Laboratory, Sichuan University (collaborator, a gift and not a purchase)
- Sequence (P52699 19-246 limits assumed): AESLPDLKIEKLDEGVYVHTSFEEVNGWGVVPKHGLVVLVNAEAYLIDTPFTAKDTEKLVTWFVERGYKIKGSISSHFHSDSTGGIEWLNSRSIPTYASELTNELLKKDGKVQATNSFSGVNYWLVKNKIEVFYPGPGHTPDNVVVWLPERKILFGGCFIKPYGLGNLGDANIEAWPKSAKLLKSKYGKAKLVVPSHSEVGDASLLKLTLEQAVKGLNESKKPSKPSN
- PROTOCOL: IMP-1 inhibition assay (FC5 fluorogenic substrate)
- Format: biochemical
- CONDITION NOTES: 10 concentrations in threefold dilution, triplicate; read-out: IC50 against IMP-1
Measured IC50 accompanies every entry in the list below.

Sample CC(C)(C)c1ccc(-c2nnc3n2CCCS3)cc1 , system: IMP-1 (Serratia marcescens, UniProt P52699). Its IC50 is > 100 µM

Sample c1csc(-c2nnc3n2CCCS3)c1 [10b] , system: IMP-1 (Serratia marcescens, UniProt P52699). Its IC50 is > 100 µM

* * *

- TARGET DESC: VIM-2 (Escherichia coli, UniProt Q5U7L7)
- Construct: Li's Laboratory, Sichuan University (collaborator, a gift and not a purchase)
- PROTOCOL: VIM-2 inhibition assay (FC5 fluorogenic substrate)
- Type: biochemical
- CONDITION NOTES: 10 concentrations in threefold dilution, triplicate; read-out: IC50 against VIM-2
PARAMETER MEASURED: IC50 (µM)

[
  {
    "MOLECULE": "FC(F)(F)c1ccc(-c2nnc3n2CCCS3)cc1 [5n]",
    "TARGET DESC": "VIM-2 (Escherichia coli, UniProt Q5U7L7)",
    "IC50, µM": 53.2
  },
  {
    "MOLECULE": "Cc1c(-c2nnc3n2CCCS3)cccc1[N+](=O)[O-] [5p]",
    "TARGET DESC": "VIM-2 (Escherichia coli, UniProt Q5U7L7)",
    "IC50, µM": 53.8
  },
  {
    "MOLECULE": "Brc1ccc(-c2nnc3n2CCCS3)cc1 [5l]",
    "TARGET DESC": "VIM-2 (Escherichia coli, UniProt Q5U7L7)",
    "IC50, µM": 38.4
  },
  {
    "MOLECULE": "Clc1ccc(-c2nnc3n2CCCS3)cc1 [5k]",
    "TARGET DESC": "VIM-2 (Escherichia coli, UniProt Q5U7L7)",
    "IC50, µM": 47.2
  },
  {
    "MOLECULE": "Brc1ccc(-c2nnc3n2CCS3)cc1 [5s]",
    "TARGET DESC": "VIM-2 (Escherichia coli, UniProt Q5U7L7)",
    "IC50, µM": 67.2
  }
]

* * *

- TARGET DESC: NDM-1 (Klebsiella pneumoniae, UniProt C7C422)
- Construct: Li's Laboratory, Sichuan University (collaborator, a gift and not a purchase)
- PROTOCOL: NDM-1 inhibition assay (FC5 fluorogenic substrate)
- Assay type: biochemical
- CONDITION NOTES: @ 10 μM; mean ± SD (n = 3)
PARAMETER MEASURED: inhibition at 10 µM (%)

Recorded inhibition at 10 µM, per entry:
[
  {
    "MOLECULE": "Oc1ccccc1-c1nnc2n1CCCS2 [compound 6]",
    "DISPLAY UNIT": "%",
    "RESULT NUMBER": 21
  },
  {
    "MOLECULE": "Brc1ccc(-c2nnc3n2CCS3)cc1 [5s]",
    "DISPLAY UNIT": "%",
    "RESULT NUMBER": 29
  },
  {
    "MOLECULE": "Clc1ccc(-c2nnc3n2CCCS3)cc1 [5k]",
    "DISPLAY UNIT": "%",
    "RESULT NUMBER": 17
  },
  {
    "MOLECULE": "CC(=O)Nc1ccc(Nc2ccc(-c3nnc4n3CCCS4)cc2)cc1 [5t]",
    "DISPLAY UNIT": "%",
    "RESULT NUMBER": 13
  },
  {
    "MOLECULE": "Brc1ccccc1-c1nnc2n1CCCS2 [5c]",
    "DISPLAY UNIT": "%",
    "RESULT NUMBER": 17
  },
  {
    "MOLECULE": "Clc1cccc(-c2nnc3n2CCCS3)c1 [5f]",
    "DISPLAY UNIT": "%",
    "RESULT NUMBER": 22
  },
  {
    "MOLECULE": "c1ccc(Cc2nnc3n2CCCS3)cc1 [5r]",
    "DISPLAY UNIT": "%",
    "RESULT NUMBER": 9
  },
  {
    "MOLECULE": "Ic1cccc(-c2nnc3n2CCCS3)c1 [5h]",
    "DISPLAY UNIT": "%",
    "RESULT NUMBER": 10
  },
  {
    "MOLECULE": "c1csc(-c2nnc3n2CCCS3)c1 [10b]",
    "DISPLAY UNIT": "%",
    "RESULT NUMBER": 8
  },
  {
    "MOLECULE": "FC(F)(F)c1cccc(-c2nnc3n2CCCS3)c1 [5i]",
    "DISPLAY UNIT": "%",
    "RESULT NUMBER": 9
  }
]

A = O=C(O)c1ccccc1-c1nnc2n1CCCS2 [compound 14]
B = Fc1cccc(-c2nnc3n2CCCS3)c1 [5e]
Q: Hi there! Just curious which has the higher inhibition at 10 µM between A and B . Answer by quoting the chosen item's label.
A: B
(B: 20%, A: 10%)

a = COc1ccccc1-c1nnc2n1CCCS2 [5d]
b = Ic1ccc(-c2nnc3n2CCCS3)cc1 [5m]
Q: Given the two records a and b , choose the one whose inhibition at 10 µM value is lower. Answer by quoting the chosen item's label.
A: b
(b: 4%, a: 6%)

A = c1ccc(-c2nnc3n2CCCS3)cc1 [5a]
B = c1ccc(-c2nnc3n2CCCS3)nc1 [5q]
C = CC(C)(C)c1ccc(-c2nnc3n2CCCS3)cc1 [5o]
Q: Sort the 3 molecules by inhibition at 10 µM; largest first, smallest last. In plain terms: list the labels in the order you were asked to.
A: B, C, A
